# System: U2OS
# protocolDescription: Multiplex assay against U2OS
# Format: toxicity, cell-based
# conditionNotes: human, 12 h, 10 µM, compound concentration 10 uM, replicate 1
A collection of molecules and their measured Population Normal (%)
Expressed in %, but write only the number.

molecule: Cc1ccccc1C(=O)Nc1ccc(C(=O)N2CCCC(N(C)C)c3ccccc32)cc1.Cl (stereo not given)
unit: %
Population Normal (%): 95
--
molecule: C[C@@H]1C[C@H]2[C@@H]3CCC4=CC(=O)C=C[C@]4(C)[C@@]3(F)[C@@H](O)C[C@]2(C)[C@@]1(O)C(=O)CO
unit: %
Population Normal (%): 97

Task: Consider the molecule CN1CCN(c2nc3cc(C(F)(F)F)ccc3n3cccc23)CC1.O=C(O)/C=C\C(=O)O.O=C(O)/C=C\C(=O)O . State its measured Population Normal (%).
Output: 98

Task: Respond only with Population Normal (%) recorded for CCNC1(C(N)=O)CCN(c2ncnc3c2nc(-c2ccccc2Cl)n3-c2ccc(Cl)cc2)CC1
Output: 93

Task: Hello, please tell me recorded Population Normal (%) for this one: Cl.Clc1ccc2nsnc2c1NC1=NCCN1 [TIZANIDINE HYDROCHLORIDE]
Output: 97

====

# Tested on: HEK-293T
# protocolDescription: Multiplex assay against HEK293T
# Assay type: toxicity, cell-based
# conditionNotes: human, 24 h, 1 µM, compound concentration 1 uM, replicate 2
endpointLabel: Total Cell Count
Give the figure only, with no unit attached.

compound: C[C@H]1[C@H]2CC[C@H]3[C@@H]4CC=C5C[C@@H](N(C)C)CC[C@]5(C)[C@H]4CC[C@]23CN1C
numericResult: 484
//
compound: O=C(NCC(=O)N1CC[C@H](N[C@H]2CC[C@@](O)(c3ccc(-c4ncccn4)cn3)CC2)C1)c1cccc(C(F)(F)F)c1
numericResult: 485
//
compound: Cl.Clc1ccc2nsnc2c1NC1=NCCN1 [TIZANIDINE HYDROCHLORIDE]
numericResult: 434

Task: Return the recorded Total Cell Count value; entry: Cc1ccccc1C(=O)Nc1ccc(C(=O)N2CCCC(N(C)C)c3ccccc32)cc1.Cl (stereo unspecified)
Output: 567

Task: Entry c1cc(OCCCN2CCCCC2)ccc1CN1CCCCC1 needs its Total Cell Count filled in; supply it.
Output: 447

Task: Supply reported Total Cell Count belonging to this compound: CCCn1c(=O)c2[nH]c(C3CCCC3)nc2n(CCC)c1=O
Output: 403

Task: Please give the documented Total Cell Count of CN1CCN2c3ncccc3Cc3ccccc3C2C1 (stereo unspecified)
Output: 373

Task: Identify measured Total Cell Count associated with C[C@@H]1C[C@H]2[C@@H]3CCC4=CC(=O)C=C[C@]4(C)[C@@]3(F)[C@@H](O)C[C@]2(C)[C@@]1(O)C(=O)CO
Output: 499

Task: Provide one value: measured Total Cell Count of O=S(=O)(c1ccccc1)c1cnc2c(N3CCNCC3)cccc2c1 [INTEPIRDINE]
Output: 416

Task: Read off the recorded Total Cell Count for CSc1ccccc1N1CCN(CCCCCC(=O)NC2CCCc3ccccc32)CC1.Cl (stereo unspecified)
Output: 356

Task: Return reported Total Cell Count. Input compound: CC[C@H]1OC(=O)[C@H](C)[C@@H](O[C@H]2C[C@@](C)(OC)[C@@H](O)[C@H](C)O2)[C@H](C)[C@@H](O[C@@H]2O[C@H](C)C[C@H](N(C)C)[C@H]2O)[C@@]2(C)CC(C)=C(O2)[C@H](C)[C@@H](O)[C@]1(C)O
Output: 371

Task: Report measured Total Cell Count; entry is CC1(COc2ccc3c(c2)ncn3-c2ccc3cccc(N4CCC(N)CC4)c3n2)COC1
Output: 415

Task: Identify Total Cell Count associated with the compound CCOc1c2c(c(OCC)c3ncccc13)CN(c1ccc(CS(=O)(=O)NC(=O)Cc3ccccc3OC)cc1C)C2=O
Output: 473

Task: Supply Total Cell Count value. Item: CC(=O)NCCc1c(Cc2ccccc2)[nH]c2ccccc12
Output: 379

Task: Supply reported Total Cell Count belonging to this compound: O=C(O)c1cc2ccccc2c(Cc2c(O)c(C(=O)O)cc3ccccc23)c1O
Output: 378

Task: Specify measured Total Cell Count for COc1ccccc1N1CCN(CCCCNC(=O)c2ccc3ccccc3c2)CC1.Cl .
Output: 444

====

# Tested on: HEK-293T
# protocolDescription: Multiplex assay against HEK293T
# Assay type: toxicity, cell-based
# conditionNotes: human, 48 h, 10 µM, compound concentration 10 uM, replicate 1
Just a reminder that ties go to false: only Population Hoechst High Intensity Objects (%) strictly below 9% counts as true.

Consider the worked cases shown below.
compound: O=C(O)c1cc2ccccc2c(Cc2c(O)c(C(=O)O)cc3ccccc23)c1O
experimentalSystem: HEK-293T
assignedClass: true
//
compound: C[C@H](NC(=O)c1c(C(F)F)nn(C)c1Oc1cccc(C(F)(F)F)c1)c1ccc(C(=O)O)cc1
experimentalSystem: HEK-293T
assignedClass: true
//
compound: COc1c(C)cc(NC(=O)c2nn(Cc3ccc(F)cc3)c3c2CN(C(=O)c2ccc[nH]2)C[C@]3(C)C(N)=O)cc1C
experimentalSystem: HEK-293T
assignedClass: false
//
compound: Cc1ccc(C(C)(O)c2nc3ccccc3s2)c(C)c1 (stereo not given)
experimentalSystem: HEK-293T
assignedClass: true
//
compound: CCCN1CCC[C@@H]2Cc3n[nH]cc3C[C@H]21.Cl [QUINPIROLE HYDROCHLORIDE]
experimentalSystem: HEK-293T
assignedClass: true
//
compound: CC1(COc2ccc3c(c2)ncn3-c2ccc3cccc(N4CCC(N)CC4)c3n2)COC1
experimentalSystem: HEK-293T
assignedClass: false
//
compound: Cc1ccccc1C(=O)Nc1ccc(C(=O)N2CCCC(N(C)C)c3ccccc32)cc1.Cl (stereo not given)
experimentalSystem: HEK-293T
assignedClass: true

Please turn your attention to the following entry.
Task: Lab note: confirm whether the reported Population Hoechst High Intensity Objects (%) for this compound is below 9%, equality not counting. compound: Cc1nc2ccc(Oc3ccc(F)cc3)cc2c(=O)n1C[C@H]1CCCN(C(C)C)C1.Cl
Output: false

====

# Test system: Fibroblast
# protocolDescription: Multiplex assay against human fibroblast
# Type: toxicity, cell-based
# conditionNotes: 24 h, 10 µM, compound concentration 10 uM, replicate 1
Here the recorded Population Fragmented Nuclei (%) is given for each entry.
Supply the numeric figure in %, leaving out any unit text.

Example cases with answers are listed next.
compound: CN(C)CCCc1cc(C(=O)Nc2ccc(-c3ccncc3)cc2)ccc1O.Cl.Cl
unit: %
numericResult: 30
--
compound: N#Cc1c(N)nc(SCc2csc(-c3ccc(Cl)cc3)n2)c(C#N)c1-c1ccc(OCCO)cc1 [CAPADENOSON]
unit: %
numericResult: 26
--
compound: CN1CCN(c2nc3cc(C(F)(F)F)ccc3n3cccc23)CC1.O=C(O)/C=C\C(=O)O.O=C(O)/C=C\C(=O)O
unit: %
numericResult: 24

Task: Look up Population Fragmented Nuclei (%) of Cc1nc2ccc(Oc3ccc(F)cc3)cc2c(=O)n1C[C@H]1CCCN(C(C)C)C1.Cl and report it.
Output: 27

Task: Indicate the recorded Population Fragmented Nuclei (%) value for this compound: Cc1ccc(/C(=C\CN2CCCC2)c2ccccn2)cc1 [TRIPROLIDINE]
Output: 15

Task: Tell us which Population Fragmented Nuclei (%) value is on record for CSc1ccccc1N1CCN(CCCCCC(=O)NC2CCCc3ccccc32)CC1.Cl (stereo unspecified)
Output: 22

====

# Tested on: Fibroblast
# protocolDescription: Multiplex assay against human fibroblast
# Assay type: toxicity, cell-based
# conditionNotes: 12 h, 10 µM, compound concentration 10 uM, replicate 2
endpointLabel: Population Pyknosed Nuclei (%)
Only the number, expressed in %, is required.

compound: CN1CCN2c3ncccc3Cc3ccccc3C2C1 (stereo not drawn)
unit: %
Population Pyknosed Nuclei (%): 32
//
compound: C[C@H]1[C@H]2CC[C@H]3[C@@H]4CC=C5C[C@@H](N(C)C)CC[C@]5(C)[C@H]4CC[C@]23CN1C
unit: %
Population Pyknosed Nuclei (%): 28

Task: Supply Population Pyknosed Nuclei (%) value. Item: CCCN1CCC[C@@H]2Cc3n[nH]cc3C[C@H]21.Cl [QUINPIROLE HYDROCHLORIDE]
Output: 17

====

# Tested on: HEK-293T
# protocolDescription: Multiplex assay against HEK293T
# Assay type: toxicity, cell-based
# conditionNotes: human, 24 h, 1 µM, compound concentration 1 uM, replicate 1
Listed next: entries and their corresponding Population Healthy Nuclei (%).
Give just the number in %; leave the unit off.

Task: Return Population Healthy Nuclei (%) (reported value) for this compound: O=C(NCCO)c1cccc(-c2cc(Nc3ccc(OC(F)(F)F)cc3)ncn2)c1
Output: 78

Task: Quote Population Healthy Nuclei (%) reported for O=C(NCC(=O)N1CC[C@H](N[C@H]2CC[C@@](O)(c3ccc(-c4ncccn4)cn3)CC2)C1)c1cccc(C(F)(F)F)c1 please.
Output: 80

Task: Respond only with Population Healthy Nuclei (%) recorded for Cc1nc2ccc(Oc3ccc(F)cc3)cc2c(=O)n1C[C@H]1CCCN(C(C)C)C1.Cl
Output: 80

Value source: ChEMBL document CHEMBL5058577
